Can you tell me EC50 group, cGMP in GTM-3 cells for the items I'm about to list?
Target: T1, natriuretic peptide receptor-B (human)
T1 chain: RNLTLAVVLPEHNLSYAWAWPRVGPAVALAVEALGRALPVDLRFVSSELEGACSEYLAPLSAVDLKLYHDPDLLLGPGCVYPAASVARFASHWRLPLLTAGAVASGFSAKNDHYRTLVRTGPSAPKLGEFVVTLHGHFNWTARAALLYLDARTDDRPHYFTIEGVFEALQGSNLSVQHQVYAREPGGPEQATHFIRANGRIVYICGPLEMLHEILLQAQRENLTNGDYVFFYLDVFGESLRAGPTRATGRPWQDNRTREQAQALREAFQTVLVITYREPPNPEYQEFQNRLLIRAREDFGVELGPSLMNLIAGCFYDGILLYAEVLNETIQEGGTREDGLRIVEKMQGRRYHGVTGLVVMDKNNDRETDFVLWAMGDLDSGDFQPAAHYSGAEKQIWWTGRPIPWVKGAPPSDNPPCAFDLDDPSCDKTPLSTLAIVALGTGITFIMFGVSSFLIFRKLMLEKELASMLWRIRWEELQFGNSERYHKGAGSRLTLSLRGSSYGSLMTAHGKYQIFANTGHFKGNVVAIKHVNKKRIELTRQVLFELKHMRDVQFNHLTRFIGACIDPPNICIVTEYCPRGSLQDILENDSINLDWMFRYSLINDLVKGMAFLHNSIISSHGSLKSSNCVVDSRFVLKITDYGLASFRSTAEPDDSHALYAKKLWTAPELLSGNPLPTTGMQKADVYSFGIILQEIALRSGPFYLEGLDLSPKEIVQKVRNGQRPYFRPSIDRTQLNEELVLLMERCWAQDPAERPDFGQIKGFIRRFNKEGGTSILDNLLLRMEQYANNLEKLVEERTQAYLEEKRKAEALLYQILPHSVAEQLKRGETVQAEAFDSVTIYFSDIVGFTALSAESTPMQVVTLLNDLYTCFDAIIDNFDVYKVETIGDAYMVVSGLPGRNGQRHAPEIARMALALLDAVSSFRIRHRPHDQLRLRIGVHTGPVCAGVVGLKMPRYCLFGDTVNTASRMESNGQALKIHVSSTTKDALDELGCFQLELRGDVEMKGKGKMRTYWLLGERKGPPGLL
Assay: cell-based or functional assay
Numbered stars: 1 amine (or outer) side, 2 acyl side, 3 side chain; on linkers, the order of the positions; unused ones are H or OH. Square brackets hold non-standard residues; d marks the D form. Ends that are not written are not given here. * marks the point of attachment. Pro(trans-4-NH2) = O=C([C@@H]1C[C@@H](N[*:3])CN1[*:1])[*:2]; Sni = (S)-nipecotic acid, O=C([C@H]1CCCN([*:1])C1)[*:2]; cPrCO(1-aminomethyl) = O=C(C1(CN[*:1])CC1)[*:2]; pT = C[C@@H](OP(=O)(O)O)[C@H](N)C(=O)O; Hyp = O=C(O)[C@@H]1C[C@@H](O)CN1; NMeL = CN[C@@H](CC(C)C)C(=O)O; orn(Me2) = not defined here; dDab = NCC[C@@H](N)C(=O)O; Octanoyl = CCCCCCCC(=O)*; 1270 = not defined here; Che = not defined here; leu = not defined here; Occ = octanoic acid

Sample records with EC50 group, cGMP in GTM-3 cells:
[Occ][Sni]FLL[Hyp][NMeL]DRI-NH2 [JAL-1554] : ≤ 5 µM
1270-AFGLKLDRI-NH2 (not fully specified (some residues); printed as 1270-ala-Phe-Gly-Leu-Lys-Leu-Asp-Arg-Ile-NH2; reading uncertain) [JAL-0787] : ≤ 15 µM
Octanoyl-AFLL[Hyp][NMeL]DPI-NH2 (also: lower-case ala, leu: meaning not given here) [JAL-1418] : ≤ 5 µM

Can you give me EC50 group, cGMP in GTM-3 cells for all of these, one by one?
1. XXFGLKLDRI (HELM PEPTIDE1{[CCCCCC(=O)[*:2]].[O=C(c1nc(N[*:1])cs1)[*:2]].F.G.L.K.L.D.R.I.[am]}$$$$V2.0; SMILES CCCCCC(=O)Nc1csc(C(=O)N[C@@H](Cc2ccccc2)C(=O)NCC(=O)N[C@@H](CC(C)C)C(=O)N[C@@H](CCCCN)C(=O)N[C@@H](CC(C)C)C(=O)N[C@@H](CC(=O)O)C(=O)N[C@@H](CCCNC(=N)N)C(=O)N[C@H](C(N)=O)[C@@H](C)CC)n1) [JAL-0713]
2. [Occ][cPrCO(1-aminomethyl)]FGLKLDRI-NH2 [JAL-0760]
3. [Occ][Sni]F[orn(Me2)]L[Hyp][NMeL]TRI-NH2 (reading uncertain; also: printed as Occ-Sni-Phe-orn(Me2)-Leu-Hyp-Nml-Thr-Arg-Ile-NH2) [JAL-1924]
4. [Occ]AFSLPLDRI-NH2 (not fully specified (residues 2, 4); printed as Occ-ala-Phe-ser-Leu-Pro-Leu-Asp-Arg-Ile-NH2) [JAL-1010]
5. [Occ][Sni]F[leu]L[Hyp][NMeL][pT]R[Che] (reading uncertain; also: printed as Occ-Sni-Phe-leu-Leu-Hyp-Nml-Pth-Arg-Che) [JAL-1919]
6. Octanoyl-AFLL[Pro(trans-4-NH2)][NMeL]DPI-NH2 (also: lower-case ala, leu: meaning not given here) [JAL-1450]
7. Octanoyl-[dA]F[dDab]LPLDRI-NH2 [JAL-1120]

Return:
1. ≤ 15 µM
2. ≤ 15 µM
3. ≤ 5 µM
4. ≤ 5 µM
5. ≤ 5 µM
6. ≤ 5 µM
7. ≤ 5 µM
